Molecular target: Gonadotropin-releasing hormone receptor (Rattus norvegicus)
Sequence (whole entry): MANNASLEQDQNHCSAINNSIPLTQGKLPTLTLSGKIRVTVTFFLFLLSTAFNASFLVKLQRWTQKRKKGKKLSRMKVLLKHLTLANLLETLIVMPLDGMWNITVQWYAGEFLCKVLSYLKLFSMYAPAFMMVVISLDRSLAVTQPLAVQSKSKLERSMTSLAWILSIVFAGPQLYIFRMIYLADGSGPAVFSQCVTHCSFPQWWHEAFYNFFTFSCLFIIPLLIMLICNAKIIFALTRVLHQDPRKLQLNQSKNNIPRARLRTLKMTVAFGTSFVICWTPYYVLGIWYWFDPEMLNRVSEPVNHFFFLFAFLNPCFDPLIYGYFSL
Assay: In vitro inhibition of LH release determined in rat pituitary cells at a dose of 3 ug of analogue and 1 ng of LHRH
Type: functional, cell-based
Details: Pituitary gland cell
Square brackets hold non-standard residues; d marks the D form. Peptide text beside a SMILES is read from it. * marks the point of attachment. ξ: configuration not given here. 2Nal = N[C@@H](Cc1ccc2ccccc2c1)C(=O)O; Picolinoyl = O=C(c1ccccn1)*; ξR = N=C(N)NCCCC(N)C(=O)O

# MOLECULE, Activity
rows = [
    ("CC(=O)N[C@@H](Cc1ccc2ccccc2c1)C(=O)N[C@@H](C)C(N)=O (Ac-[2Nal]-Ala-NH2)", 153),
    ("CC(=O)N[C@@H](Cc1ccc2ccccc2c1)C(=O)N[C@@H](CCCCNC(=O)c1ccccn1)C(=O)N1CCC[C@H]1C(N)=O", 139),
    ("CC(=O)N[C@@H](Cc1ccc2ccccc2c1)C(=O)N[C@@H](CCCCNC(=O)c1ccccn1)C(=O)NC(CCCN=C(N)N)C(=O)N1CCC[C@H]1C(N)=O (some centres not stated) (Ac-[2Nal]K(Picolinoyl)[ξR]P-NH2)", 145),
    ("CC(=O)NC(Cc1ccc2ccccc2c1)C(=O)N[C@@H](CO)C(=O)N[C@@H](Cc1ccc(O)cc1)C(=O)NC(Cc1ccc2ccccc2c1)C(=O)N[C@@H](CC(C)C)C(=O)N[C@@H](CCCCNC(C)C)C(=O)N1CCC[C@H]1C(=O)N[C@H](C)C(N)=O (stereo in doubt)", 23),
    ("CCNC(=O)[C@@H]1CCCN1C(=O)[C@H](Cc1ccc2ccccc2c1)NC(C)=O (Ac-[2Nal]-Pro-NHEt)", 141),
    ("CC(=O)N[C@H](Cc1ccc2ccccc2c1)C(=O)N[C@@H](CO)C(=O)N[C@@H](Cc1ccc(O)cc1)C(=O)N[C@H](CCCCNC(=O)c1ccccn1)C(=O)N[C@@H](CC(C)C)C(=O)N[C@@H](CCCN=C(N)N)C(=O)N1CCC[C@H]1C(=O)N[C@H](C)C(N)=O", 29),
    ("CC(=O)N[C@H](Cc1ccc2ccccc2c1)C(=O)N[C@@H](CO)C(=O)N[C@@H](Cc1ccc(O)cc1)C(=O)N[C@H](Cc1ccc2ccccc2c1)C(=O)N[C@@H](CC(C)C)C(=O)N[C@@H](CCCN=C(N)N)C(=O)N1CCC[C@H]1C(=O)NCC(N)=O", 45),
]

----------
In this section, each of the molecules is paired with its reported Activity.
target: UniProtKB P30969; assay: In vitro antagonistic activity against LH release in rat pituitary cells for control.; format: functional, cell-based; conditions: Pituitary gland cell
PROPERTY_MEASURED: Activity

# MOLECULE, TEST_RESULT
measured = [
    ("CC(C)C[C@H](NC(=O)C(Cc1ccc2ccccc2c1)NC(=O)[C@H](Cc1ccc(O)cc1)NC(=O)[C@H](CO)NC(=O)[C@H](Cc1cccnc1)NC(=O)[C@H](Cc1ccc(Cl)cc1)NC(=O)[C@@H]1CCC(=O)N1)C(=O)N[C@@H](CCCN=C(N)N)C(=O)N1CCC[C@H]1C(=O)N[C@H](C)C(N)=O (stereo in doubt)", 3.8),
    ("CCNC(=O)[C@@H]1CCCN1C(=O)[C@H](CCCCNC(C)C)NC(=O)[C@H](CC(C)C)NC(=O)[C@H](CCCCNC(=O)c1ccccn1)NC(=O)[C@H](Cc1ccc(O)cc1)NC(=O)[C@H](CO)NC(=O)[C@H](Cc1ccc2ccccc2c1)NC(C)=O", 3.5),
]
